Where do the numbers come from? From patent US5952321A.

- test target: Human Polymorphonuclear Leukocyte Elastase (Homo sapiens)
- Sequence (P08246 30-267): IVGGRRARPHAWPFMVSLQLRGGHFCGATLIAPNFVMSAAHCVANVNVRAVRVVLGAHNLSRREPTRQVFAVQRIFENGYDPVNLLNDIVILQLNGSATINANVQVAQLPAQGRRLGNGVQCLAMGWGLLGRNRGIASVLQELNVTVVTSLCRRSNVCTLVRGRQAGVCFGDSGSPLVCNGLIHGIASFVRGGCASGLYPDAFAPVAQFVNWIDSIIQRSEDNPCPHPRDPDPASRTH
- test summary: Inhibition of human polymorphonuclear leukocyte elastase via hydrolysis of Boc-AAPAN or Boc-AAPVN
- Format: biochemical
- test parameters: pH 7.5, Table I; second order rate constant for inactivation of the enzyme; read-out: Kobs /[I]
Reported kinact/KI values for a set of compounds
# unit: M⁻¹ s⁻¹ | format: bare number

compound	test target	kinact/KI (M⁻¹ s⁻¹)
CCC[C@@H](NC(=O)N1C(=O)C(CC)(CC)[C@@H]1Oc1ccc(C2CCCN2CCOCC)cc1)c1ccc(C)cc1 (stereo partly drawn)	Human Polymorphonuclear Leukocyte Elastase (Homo sapiens)	1.1e+06
CCC[C@@H](NC(=O)N1C(=O)C(CC)(CC)[C@@H]1Oc1ccc(CN(C)CCOC(=O)C(C)(C)C)cc1)c1ccc(C)cc1	Human Polymorphonuclear Leukocyte Elastase (Homo sapiens)	230000

Query: Record request: kinact/KI value, item CCC[C@@H](NC(=O)N1C(=O)C(CC)(CC)[C@@H]1Oc1ccc(CN2CCC[C@H]2COC)cc1)c1ccc(C)cc1
Reply: 1.55e+06

----------
- test target: UniProtKB P08246
- Sequence (P08246 30-267): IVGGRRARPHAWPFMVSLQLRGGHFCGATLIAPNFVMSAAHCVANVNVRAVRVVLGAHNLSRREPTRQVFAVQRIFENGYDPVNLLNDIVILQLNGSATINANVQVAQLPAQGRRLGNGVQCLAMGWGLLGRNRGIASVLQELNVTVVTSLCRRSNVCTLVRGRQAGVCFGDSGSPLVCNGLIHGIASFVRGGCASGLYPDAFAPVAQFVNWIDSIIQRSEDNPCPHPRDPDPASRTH
- test summary: Inhibition of human polymorphonuclear leukocyte elastase via hydrolysis of Boc-AAPAN or Boc-AAPVN
- Type: biochemical
- test parameters: pH 7.5, Table I; second order rate constant for inactivation of the enzyme; read-out: Kobs /[I]
Quick rule for you: kinact/KI at 800000 M⁻¹ s⁻¹ or higher means fulfilled, lower means not fulfilled.

// below: answered molecules
molecule	test target	category
CCC[C@@H](NC(=O)N1C(=O)C(CC)(CC)[C@@H]1Oc1ccc(CN2CCN(C(=O)N(C)C)CC2)cc1)c1ccc(C)cc1	UniProtKB P08246	fulfilled
CCC[C@@H](NC(=O)N1C(=O)C(CC)(CC)[C@@H]1Oc1ccc(C(C)N(C)CCOC(=O)N(C)C)cc1)c1ccc(C)cc1 (some centres unmarked) [R4=Me; R5=CH2 CH2 OCONMe2; R6=Me]	UniProtKB P08246	fulfilled
CCC[C@@H](NC(=O)N1C(=O)C(CC)(CC)[C@@H]1Oc1ccc(C(COC)N2CCCC2)cc1)c1ccc(C)cc1 (mixture of isomers) [R4+R5=--CH2 CH2 CH2 CH2 --; R6=CH2 OMe]	UniProtKB P08246	fulfilled
CCC[C@@H](NC(=O)N1C(=O)C(CC)(CC)[C@@H]1Oc1ccc(CN(C)CCOC(=O)NC)cc1)c1ccc(C)cc1 [R4=Me; R5=CH2 CH2 OCONHMe; R6=H]	UniProtKB P08246	not fulfilled
CCC[C@@H](NC(=O)N1C(=O)C(CC)(CC)[C@@H]1Oc1ccc(CN2CCN(C(=O)c3ccccc3)CC2)cc1)c1ccc(C)cc1 [R4+R5=--CH2 CH2 N(Bz)CH2 CH2 --; R6=H]	UniProtKB P08246	fulfilled
CCC[C@@H](NC(=O)N1C(=O)C(CC)(CC)[C@@H]1Oc1ccc(CN(C)CCN(C)C(C)=O)cc1)c1ccc(C)cc1 [R4=Me; R5=CH2 CH2 N(Me)Ac; R6=H]	UniProtKB P08246	not fulfilled
CCC[C@@H](NC(=O)N1C(=O)C(CC)(CC)[C@@H]1Oc1ccc(CN(CCOC)C(C)C)cc1)c1ccc(C)cc1 [R4=i-Pr; R5=CH2 CH2 OMe; R6=H]	UniProtKB P08246	not fulfilled
CCC[C@@H](NC(=O)N1C(=O)C(CC)(CC)[C@@H]1Oc1ccc(CN(C)CCS(=O)(=O)CC)cc1)c1ccc(C)cc1 [R4=Me; R5=CH2 CH2 SO2 Et; R6=H]	UniProtKB P08246	fulfilled

Query: State whether the measured kinact/KI reaches 800000 M⁻¹ s⁻¹, counting equality as reaching it, for CCC[C@@H](NC(=O)N1C(=O)C(CC)(CC)[C@@H]1Oc1ccc(CN(C)CC(=O)N(CCC)CCC)cc1)c1ccc(C)cc1 [R4=Me; R5=CH2 CON(n-Pr)2; R6=H]
Reply: fulfilled

Query: State whether the measured kinact/KI reaches 800000 M⁻¹ s⁻¹, counting equality as reaching it, for CCC[C@@H](NC(=O)N1C(=O)C(CC)(CC)[C@@H]1Oc1ccc(CN2CCC(O)C2)cc1)c1ccc(C)cc1 (some centres unmarked) [R4+R5=--CH2 CH2 CH(OH)CH2 --; R6=H]
Reply: fulfilled

Query: State whether the measured kinact/KI reaches 800000 M⁻¹ s⁻¹, counting equality as reaching it, for CCC[C@@H](NC(=O)N1C(=O)C(CC)(CC)[C@@H]1Oc1ccc(CN2CCC[C@@H]2CO)cc1)c1ccc(C)cc1
Reply: not fulfilled

Query: State whether the measured kinact/KI reaches 800000 M⁻¹ s⁻¹, counting equality as reaching it, for CCC[C@@H](NC(=O)N1C(=O)C(CC)(CC)[C@@H]1Oc1ccc(CN(C)CCOCC)cc1)c1ccc(C)cc1 [R4=Me; R5=CH2 CH2 OEt; R6=H]
Reply: not fulfilled

Query: State whether the measured kinact/KI reaches 800000 M⁻¹ s⁻¹, counting equality as reaching it, for CCC[C@@H](NC(=O)N1C(=O)C(CC)(CC)[C@@H]1Oc1ccc(CN2CCN(C(=O)C(C)C)CC2)cc1)c1ccc(C)cc1
Reply: fulfilled

----------
- test target: UniProtKB P08246
- test summary: Inhibition of human polymorphonuclear leukocyte elastase via hydrolysis of Boc-AAPAN or Boc-AAPVN
- Assay type: biochemical
- test parameters: pH 7.5, Table I; second order rate constant for inactivation of the enzyme; read-out: Kobs /[I]
- Method: Enzyme Assays for the Inhibition of Human Polymorphonuclear Leukocyte Elastase Via Hydrolysis of N-t-Boc-alanyl-alanyl-prolylalanine-p-nitroanilide (Boc-AAPAN) or […] (Boc-AAPVN) Reagent: […] To 1.0 ml of 0.2 mM Boc-AAPAN in a cuvette, 0.01-0.1 ml of DMSO with or without inhibitor was added. […] 0.05 Milliliters of PMN extract was then added and the ΔOD/min at 410 mμ was measured and recorded. […]
Reported kinact/KI values for a set of compounds
# unit: M⁻¹ s⁻¹ | format: bare number

Solved entries:
compound	assay value
CCC[C@@H](NC(=O)N1C(=O)C(CC)(CC)[C@@H]1Oc1ccc(CN(CC)CCOCCOC)cc1)c1ccc(C)cc1	1.3e+06
CCC[C@@H](NC(=O)N1C(=O)C(CC)(CC)[C@@H]1Oc1ccc(CN(C)CCN(C)C)cc1)c1ccc(C)cc1	850000
CCC[C@@H](NC(=O)N1C(=O)C(CC)(CC)[C@@H]1Oc1ccc(C(C)N2CCC[C@H]2COC)cc1)c1ccc(C)cc1 (single isomer, unassigned) [R4+R5=--CH2 CH2 CH2 CH(S--CH2 OMe)--; R6=Me (isomer A)]	960000
CCC[C@@H](NC(=O)N1C(=O)C(CC)(CC)[C@@H]1Oc1ccc(CN2CCN(c3ncccn3)CC2)cc1)c1ccc(C)cc1	715000
CCC[C@@H](NC(=O)N1C(=O)C(CC)(CC)[C@@H]1Oc1ccc(CNC(=O)CN(C)C)cc1)c1ccc(C)cc1	800000

Query: Record request: kinact/KI value, item CCC[C@@H](NC(=O)N1C(=O)C(CC)(CC)[C@@H]1Oc1ccc(CN(C)CCN(C)C(=O)N(C)C)cc1)c1ccc(C)cc1
Reply: 850000

Query: Record request: kinact/KI value, item CCC[C@@H](NC(=O)N1C(=O)C(CC)(CC)[C@@H]1Oc1ccc(CN(C)CC[S+]([O-])CC)cc1)c1ccc(C)cc1 (some centres unmarked)
Reply: 1.4e+06

Query: Record request: kinact/KI value, item CCC[C@@H](NC(=O)N1C(=O)C(CC)(CC)[C@@H]1Oc1ccc(C(C)N(C)CCOC)cc1)c1ccc(C)cc1 (some centres unmarked)
Reply: 600000

Query: Record request: kinact/KI value, item CCC[C@@H](NC(=O)N1C(=O)C(CC)(CC)[C@@H]1Oc1ccc(Cn2ccnc2C)cc1)c1ccc(C)cc1
Reply: 1.4e+06

Query: Record request: kinact/KI value, item CCC[C@@H](NC(=O)N1C(=O)C(CC)(CC)[C@@H]1Oc1ccc(CN2CCSCC2)cc1)c1ccc(C)cc1
Reply: 915000

Query: Record request: kinact/KI value, item CCC[C@@H](NC(=O)N1C(=O)C(CC)(CC)[C@@H]1Oc1ccc(CN2CCN(C(C)C)CC2)cc1)c1ccc(C)cc1
Reply: 1.2e+06
